# target_of_assay: arginine vasopressin V2 receptor (Rattus norvegicus)
# Construct: A rat renal medullary membrane specimen was prepared; from tissue; host or cells: rat renal medulla (membrane specimen)
# Sequence (Q00788 whole entry): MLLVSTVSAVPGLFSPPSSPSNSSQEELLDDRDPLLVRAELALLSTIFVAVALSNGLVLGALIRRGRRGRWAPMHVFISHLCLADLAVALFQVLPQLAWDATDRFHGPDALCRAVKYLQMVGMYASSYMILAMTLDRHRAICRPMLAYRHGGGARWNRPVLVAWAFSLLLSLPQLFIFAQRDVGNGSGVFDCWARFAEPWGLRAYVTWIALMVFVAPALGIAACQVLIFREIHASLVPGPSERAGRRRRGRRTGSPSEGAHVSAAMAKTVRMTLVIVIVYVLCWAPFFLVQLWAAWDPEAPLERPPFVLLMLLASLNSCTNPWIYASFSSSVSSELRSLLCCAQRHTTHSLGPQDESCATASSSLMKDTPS
# protocol_description: V2 receptor binding assay ([3H]-vasopressin, rat renal medullary membrane specimen)
# recorded_conditions: [3H]-vasopressin 0.5 nM, read-out: Binding activity against arginine vasopressin V2 receptor (pKi) (converted)
Where a name gives a salt, the structure may show the parent alone.
Note to self: use Fulfilled only for Ki readings below 6 nM; a reading exactly at 6 nM still gets Not fulfilled.

Threshold test, Ki < 6 nM: O=C(Nc1ccc(C(=O)N2CCc3nc(C4CC4)[nH]c3-c3ccccc32)cc1)c1ccccc1-c1ccccc1 [Control compound 2, hydrochloride, reference compound] Fulfilled

Item O=C(Nc1ccc(C(=O)N2CCc3nc(-c4ccccn4)[nH]c3-c3ccccc32)cc1O)c1ccccc1-c1ccccc1 [Example 12, hydrochloride] : Ki beneath 6 nM, strictly? Not fulfilled

I wonder whether O=C(Nc1ccc(C(=O)N2CCc3nc(-c4ccccn4)[nH]c3-c3ccccc32)cc1)c1ccccc1-c1ccccc1F has Ki below 6 nM. Can you tell? Not fulfilled

For O=C(Nc1ccc(C(=O)N2CCc3nc(Cc4ccccc4)[nH]c3-c3ccccc32)cc1)c1ccccc1-c1ccccc1 [Control compound 1, hydrochloride, reference compound] , is the recorded Ki below the cut-off of 6 nM? Not fulfilled

In the record for O=C(Nc1ccc(C(=O)N2CCc3nc(-c4ccccn4)[nH]c3-c3ccccc32)nc1)c1ccccc1-c1ccccc1 , is Ki less than 6 nM? Not fulfilled

====

# target_of_assay: drug metabolizing enzyme CYP3A4 (Homo sapiens)
# Sequence (P08684 whole entry): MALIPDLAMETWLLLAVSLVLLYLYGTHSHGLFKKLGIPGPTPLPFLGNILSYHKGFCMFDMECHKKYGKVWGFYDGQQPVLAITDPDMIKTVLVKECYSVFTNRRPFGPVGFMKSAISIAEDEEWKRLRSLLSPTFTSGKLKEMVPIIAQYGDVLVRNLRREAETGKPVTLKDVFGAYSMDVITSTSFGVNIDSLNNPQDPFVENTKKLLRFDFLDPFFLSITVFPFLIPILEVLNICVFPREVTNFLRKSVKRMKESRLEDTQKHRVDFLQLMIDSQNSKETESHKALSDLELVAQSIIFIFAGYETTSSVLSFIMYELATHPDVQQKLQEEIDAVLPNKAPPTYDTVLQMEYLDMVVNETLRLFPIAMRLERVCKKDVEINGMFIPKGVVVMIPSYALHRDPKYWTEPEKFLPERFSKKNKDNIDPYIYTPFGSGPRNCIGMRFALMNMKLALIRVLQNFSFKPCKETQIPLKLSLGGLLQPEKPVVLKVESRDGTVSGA
# protocol_description: Cytochrome P450 (3A4) inhibition assay (BFC substrate, fluorescence)
# Type: in vitro ADME
# recorded_conditions: BFC 5×10^−5 M substrate, 37° C., 30 minutes; read-out: Inhibition activity against drug metabolizing enzyme CYP3A4 (IC50/μM)
Counter-ions that a name gives are not always drawn.
quantity_measured: IC50 (µM)
Please respond with the number in µM and leave the unit unwritten.

Consider the compound O=C(Nc1ccc(C(=O)N2CCc3nc(Cc4ccccc4)[nH]c3-c3ccccc32)cc1)c1ccccc1-c1ccccc1 [Control compound 1, hydrochloride, reference compound] and give its measured IC50. 0.21

Data request, read-out IC50, for O=C(Nc1ccc(C(=O)N2CCc3nc(C4CC4)[nH]c3-c3ccccc32)cc1)c1ccccc1-c1ccccc1 [Control compound 2, hydrochloride, reference compound] 0.43

Entry under review: O=C(Nc1ccc(C(=O)N2CCc3nc(-c4ccccn4)[nH]c3-c3ccccc32)nc1)c1ccccc1-c1ccccc1 . Reported IC50? 2

Value lookup for IC50; key = O=C(Nc1ccc(C(=O)N2CCc3nc(-c4ccccn4)[nH]c3-c3ccccc32)cc1)c1ccccc1-c1ccccc1F 2.4

Which IC50 value is on record for O=C(Nc1ccc(C(=O)N2CCc3nc(-c4ccccn4)[nH]c3-c3ccccc32)cc1)c1ccccc1-c1ccccc1 [Example 1, hydrochloride] ? 7.82

# input compound: O=C(Nc1ccc(C(=O)N2CCc3nc(-c4ccccn4)[nH]c3-c3ccccc32)cc1O)c1ccccc1-c1ccccc1 [Example 12, hydrochloride] ; wanted: its IC50 5.9

====

# target_of_assay: arginine vasopressin V1A receptor (Rattus norvegicus)
# Construct: A rat hepatic membrane specimen was prepared; from tissue; host or cells: rat liver (hepatic membrane specimen)
# Sequence (P30560 whole entry): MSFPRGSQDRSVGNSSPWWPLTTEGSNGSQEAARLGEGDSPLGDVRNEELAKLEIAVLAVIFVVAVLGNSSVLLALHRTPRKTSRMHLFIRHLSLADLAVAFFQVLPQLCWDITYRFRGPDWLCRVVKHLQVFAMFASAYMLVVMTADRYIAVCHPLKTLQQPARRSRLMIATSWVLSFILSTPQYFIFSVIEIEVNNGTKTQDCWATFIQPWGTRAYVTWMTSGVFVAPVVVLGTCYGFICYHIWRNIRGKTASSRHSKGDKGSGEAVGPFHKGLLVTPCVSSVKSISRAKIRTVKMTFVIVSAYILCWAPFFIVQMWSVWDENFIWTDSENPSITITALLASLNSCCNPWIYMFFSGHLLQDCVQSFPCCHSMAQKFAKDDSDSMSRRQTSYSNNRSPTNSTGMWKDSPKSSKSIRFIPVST
# protocol_description: V1A receptor binding assay ([3H]-vasopressin, rat hepatic membrane specimen)
# recorded_conditions: [3H]-vasopressin 0.5 nM, 25° C., 60 minutes, read-out: Binding activity against arginine vasopressin V1A receptor (pki) (converted)
Where a name gives a salt, the structure may show the parent alone.
quantity_measured: Ki

Provide the documented Ki with arginine vasopressin V1A receptor (Rattus norvegicus) as the system for O=C(Nc1ccc(C(=O)N2CCc3nc(-c4ccccn4)[nH]c3-c3ccccc32)cc1O)c1ccccc1-c1ccccc1 [Example 12, hydrochloride] 7.59 nM

What is its Ki for arginine vasopressin V1A receptor (Rattus norvegicus)? Entry: O=C(Nc1ccc(C(=O)N2CCc3nc(Cc4ccccc4)[nH]c3-c3ccccc32)cc1)c1ccccc1-c1ccccc1 [Control compound 1, hydrochloride, reference compound] 7.76 nM

Tell me reported Ki for O=C(Nc1ccc(C(=O)N2CCc3nc(-c4ccccn4)[nH]c3-c3ccccc32)cc1)c1ccccc1-c1ccccc1 [Example 1, hydrochloride] , tested with arginine vasopressin V1A receptor (Rattus norvegicus). 2.82 nM

Provide the documented Ki with arginine vasopressin V1A receptor (Rattus norvegicus) as the system for O=C(Nc1ccc(C(=O)N2CCc3nc(-c4ccccn4)[nH]c3-c3ccccc32)nc1)c1ccccc1-c1ccccc1 [Example 11] 1.95 nM

Requested read-out Ki, target or system arginine vasopressin V1A receptor (Rattus norvegicus), entry O=C(Nc1ccc(C(=O)N2CCc3nc(C4CC4)[nH]c3-c3ccccc32)cc1)c1ccccc1-c1ccccc1 [Control compound 2, hydrochloride, reference compound] 1.23 nM

Short answer please: Ki, arginine vasopressin V1A receptor (Rattus norvegicus), entry O=C(Nc1ccc(C(=O)N2CCc3nc(-c4ccccn4)[nH]c3-c3ccccc32)cc1)c1ccccc1-c1ccccc1F [Example 9] 3.8 nM

Data provenance: patent US7056910B2
